tested on: COLO 320; experiment: Cytostatic activity against human COLO320 cells assessed as growth inhibition after 3 days by particle counting analysis; format: functional, cell-based; conditions: COLO 320, 72 h
pIC50: −log10 of the molar value.
// reported pIC50 per item

Molecule | Relation | pIC50
Cc1cn([C@H]2C=C[C@@H](COP(=O)(N[C@@H](C)C(=O)OCc3ccccc3)N[C@@H](C)C(=O)OCc3ccccc3)O2)c(=O)[nH]c1=O | = | 3.88
CC(=O)Nc1ccn([C@H]2CS[C@@H](CO)O2)c(=O)n1 | ≤ | 3.60
C[C@H](NP(=O)(N[C@@H](C)C(=O)OCc1ccccc1)OC[C@H]1O[C@@H](n2ccc(N)nc2=O)CS1)C(=O)OCc1ccccc1 | = | 4.07
Cc1cn([C@H]2C=C[C@@H](CO)O2)c(=O)[nH]c1=O [STAVUDINE] | = | 3.80
CC(=O)Nc1ccn([C@H]2CS[C@@H](COP(=O)(N[C@@H](C)C(=O)OCc3ccccc3)N[C@@H](C)C(=O)OCc3ccccc3)O2)c(=O)n1 | < | 3.60
Cc1cn([C@H]2C=C[C@@H](COP(=O)(N[C@@H](C)C(=O)OCC(C)(C)C)N[C@@H](C)C(=O)OCC(C)(C)C)O2)c(=O)[nH]c1=O | = | 4.52
Nc1ccn([C@@H]2CS[C@H](CO)O2)c(=O)n1 [LAMIVUDINE] | < | 3.60

* * *

// reported IC50 per item
system: HeLa; assay: Cytostatic activity against human HeLa cells assessed as growth inhibition after 3 days by particle counting analysis; assay type: functional, cell-based; details: 72 h

Compound | Target entity | Unit descriptor | Relation | IC50
NC(=O)c1ncn([C@@H]2O[C@H](CO)[C@@H](O)[C@H]2O)c1N [ACADESINE] | HeLa | µM | = | 165
C[C@H](NP(=O)(N[C@@H](C)C(=O)OCc1ccccc1)OC[C@H]1O[C@@H](n2cnc(C(N)=O)c2N)[C@H](O)[C@@H]1O)C(=O)OCc1ccccc1 | HeLa | µM | > | 250
C[C@H](NP(=O)(N[C@@H](C)C(=O)OCc1ccccc1)OC[C@@H]1C=C[C@H](n2cnc3c(NC4CC4)nc(N)nc32)C1)C(=O)OCc1ccccc1 | HeLa | µM | = | 23
CC(=O)Nc1ccn([C@H]2CS[C@@H](CO)O2)c(=O)n1 | HeLa | µM | = | 242
Nc1ncnc2c1ncn2[C@H]1CC[C@@H](CO)O1 | HeLa | µM | > | 250
C[C@H](NP(=O)(N[C@@H](C)C(=O)OCC(C)(C)C)OC[C@H]1O[C@@H](n2cnc(C(N)=O)c2N)[C@H](O)[C@@H]1O)C(=O)OCC(C)(C)C | HeLa | µM | > | 250
C[C@H](NP(=O)(N[C@@H](C)C(=O)OCC(C)(C)C)OC[C@@H]1C=C[C@H](n2cnc3c(NC4CC4)nc(N)nc32)C1)C(=O)OCC(C)(C)C | HeLa | µM | = | 36

* * *

// reported CC50 per item
test system: Huh-7; assay: Cytotoxicity against human HuH7 cells; type: cell-based; conditions: human, huh-7; read-out: CC50
Reported metric: CC50

Smiles repr | Reported metric | Test value
C[C@H](NP(=O)(N[C@@H](C)C(=O)OCc1ccccc1)OC[C@@]1(N=[N+]=[N-])O[C@@H](n2ccc(N)nc2=O)[C@H](O)[C@@H]1O)C(=O)OCc1ccccc1 | CC50 | > 100 µM
C[C@H](NP(=O)(N[C@@H](C)C(=O)OCC(C)(C)C)OC[C@@]1(N=[N+]=[N-])O[C@@H](n2ccc(N)nc2=O)[C@H](O)[C@@H]1O)C(=O)OCC(C)(C)C | CC50 | 72 µM
C[C@H](NP(=O)(N[C@@H](C)C(=O)OCc1ccccc1)OC[C@@]1(N=[N+]=[N-])O[C@@H](n2ccc(=O)[nH]c2=O)[C@H](O)[C@@H]1O)C(=O)OCc1ccccc1 | CC50 | > 100 µM

* * *

system: HeLa; assay: Cytostatic activity against human HeLa cells assessed as growth inhibition after 3 days by particle counting analysis; format: functional, cell-based; conditions: 72 h

Smiles repr | Unit descriptor | Relation | IC50
Cc1cn([C@H]2C=C[C@@H](COP(=O)(N[C@@H](C)C(=O)OCc3ccccc3)N[C@@H](C)C(=O)OCc3ccccc3)O2)c(=O)[nH]c1=O | µM | = | 116
Nc1nc(NC2CC2)c2ncn([C@H]3C=C[C@@H](CO)C3)c2n1 | µM | = | 170
Nc1ccn([C@@H]2CS[C@H](CO)O2)c(=O)n1 | µM | > | 250
Cc1cn([C@H]2C=C[C@@H](COP(=O)(N[C@@H](C)C(=O)OCC(C)(C)C)N[C@@H](C)C(=O)OCC(C)(C)C)O2)c(=O)[nH]c1=O | µM | = | 110
CC(=O)Nc1ccn([C@H]2CS[C@@H](COP(=O)(N[C@@H](C)C(=O)OCc3ccccc3)N[C@@H](C)C(=O)OCc3ccccc3)O2)c(=O)n1 | µM | = | 155
Cc1cn([C@H]2C=C[C@@H](CO)O2)c(=O)[nH]c1=O | µM | > | 250
Cc1cn([C@H]2C=C[C@@H](COP(=O)(N[C@@H](C)C(=O)OC3CCCCC3)N[C@@H](C)C(=O)OC3CCCCC3)O2)c(=O)[nH]c1=O | µM | = | 96
C[C@H](NP(=O)(N[C@@H](C)C(=O)OCc1ccccc1)OC[C@H]1O[C@@H](n2ccc(N)nc2=O)CS1)C(=O)OCc1ccccc1 | µM | = | 93
COC(=O)[C@H](C)NP(=O)(N[C@@H](C)C(=O)OC)OC[C@H]1O[C@@H](n2cnc(C(N)=O)c2N)[C@H](O)[C@@H]1O | µM | > | 250

* * *

system: Huh-7; experiment: Cytotoxicity against human HuH7 cells; format: cell-based; details: human, huh-7; read-out: ED50 (the source's name)

Smiles repr | Target entity | CC50
C[C@H](NP(=O)(N[C@@H](C)C(=O)OCC(C)(C)C)OC[C@H]1O[C@@H](n2cnc(C(N)=O)n2)[C@H](O)[C@@H]1O)C(=O)OCC(C)(C)C | Huh-7 | > 100 µM

* * *

test system: Huh-7; assay: Cytotoxicity against human HuH7 cells; type: cell-based; conditions: human, huh-7; read-out: CC50
// reported CC50 per item

Smiles repr | CC50
CCOc1nc(N)nc2c1ncn2[C@@H]1O[C@H](COP(=O)(N[C@H](C)C(=O)OCC(C)(C)C)N[C@H](C)C(=O)OCC(C)(C)C)[C@@H](O)[C@@]1(C)F | > 100 µM
C[C@H](NP(=O)(N[C@@H](C)C(=O)OCC(C)(C)C)OC[C@@]1(N=[N+]=[N-])O[C@@H](n2ccc(=O)[nH]c2=O)[C@H](O)[C@@H]1O)C(=O)OCC(C)(C)C | > 100 µM
CCOc1nc(N)nc2c1ncn2[C@@H]1O[C@H](COP(=O)(N[C@@H](C)C(=O)OCC(C)(C)C)N[C@@H](C)C(=O)OCC(C)(C)C)[C@@H](O)[C@@]1(C)F | 73 µM

* * *

tested on: CCRF-CEM; assay: Cytotoxicity against human CEM cells; format: cell-based

Smiles repr | Relation | CC50 [µM]
Nc1nc(NC2CC2)c2ncn([C@H]3C=C[C@@H](CO)C3)c2n1 | > | 250
Nc1ncnc2c1ncn2[C@H]1CC[C@@H](CO)O1 | > | 250
Cc1cn([C@H]2C[C@H](N=[N+]=[N-])[C@@H](CO)O2)c(=O)[nH]c1=O | > | 250
Nc1ccn([C@@H]2CS[C@H](CO)O2)c(=O)n1 | > | 250
C[C@H](NP(=O)(N[C@@H](C)C(=O)OCC(C)(C)C)OC[C@@H]1CC[C@H](n2cnc3c(N)ncnc32)O1)C(=O)OCC(C)(C)C | = | 35
Cc1cn([C@H]2C[C@H](N=[N+]=[N-])[C@@H](COP(=O)(N[C@@H](C)C(=O)OCc3ccccc3)N[C@@H](C)C(=O)OCc3ccccc3)O2)c(=O)[nH]c1=O | = | 30
Cc1cn([C@H]2C[C@H](N=[N+]=[N-])[C@@H](COP(=O)(N[C@@H](C)C(=O)OCC(C)(C)C)N[C@@H](C)C(=O)OCC(C)(C)C)O2)c(=O)[nH]c1=O | = | 75

* * *

test system: Hepatitis C virus; assay: Antiviral activity against Hepatitis C virus genotype 1b infected in human HuH7 cells assessed as inhibition of viral replication; type: functional, organism-based, Hepacivirus hominis; details: Huh-7, read-out: ED50 (the source's name)

Smiles repr | EC50
C[C@H](NP(=O)(N[C@@H](C)C(=O)OCC(C)(C)C)OC[C@H]1O[C@@H](n2cnc(C(N)=O)n2)[C@H](O)[C@@H]1O)C(=O)OCC(C)(C)C | > 100 µM
